Each record here notes measured pIC50.
study_target: human orexin-2 receptor (Homo sapiens (Human), UniProt O43614)
Sequence (O43614 whole entry): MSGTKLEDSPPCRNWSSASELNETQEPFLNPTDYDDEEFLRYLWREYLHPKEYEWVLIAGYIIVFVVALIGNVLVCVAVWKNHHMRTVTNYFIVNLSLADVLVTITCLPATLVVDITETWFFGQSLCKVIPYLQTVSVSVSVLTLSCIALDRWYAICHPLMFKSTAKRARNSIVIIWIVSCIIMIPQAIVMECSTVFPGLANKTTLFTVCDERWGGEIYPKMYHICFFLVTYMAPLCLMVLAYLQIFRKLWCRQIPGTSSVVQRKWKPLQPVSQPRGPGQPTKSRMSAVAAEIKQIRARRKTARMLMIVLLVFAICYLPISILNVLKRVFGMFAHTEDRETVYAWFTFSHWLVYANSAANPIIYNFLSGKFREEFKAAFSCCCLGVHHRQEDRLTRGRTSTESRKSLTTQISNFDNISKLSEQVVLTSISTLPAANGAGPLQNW
run_description: Intracellular calcium measurements (FLIPR), antagonism of orexin-A response
Format: cell-based
run_parameters: CHO cells, 3 nM orexin-A, compound incubation 10 min; read-out: IC50 Ox2
Scale for pIC50: -log10 of concentration given in mol/L; no unit attached.

Take a look at these entries with their results.
# compound, reading
rows = [
    ("COc1ccc(S(=O)(=O)N2CCC[C@H]2C(=O)Nc2cccc(OC)c2)cc1 [Example 21]", 7.33),
    ("COc1ccc(S(=O)(=O)N2CCC[C@H]2C(=O)Nc2cc(C)ccc2F)cc1 [Example 38]", 7.59),
    ("COc1ccc(S(=O)(=O)N2CCC[C@H]2C(=O)Nc2cc(OC)ccc2Cl)cc1 [Example 29]", 6.89),
]

Consider the compound CSc1cccc(NC(=O)[C@@H]2CCCN2S(=O)(=O)c2ccc(Cl)cc2)c1 [Example 9] and give its measured pIC50.
8.05

----------
study_target: human orexin-2 receptor (Homo sapiens (Human))
run_description: Intracellular calcium measurements (FLIPR), antagonism of orexin-A response
Type: cell-based
run_parameters: CHO cells, 3 nM orexin-A, compound incubation 10 min; read-out: IC50 Ox2
Measured IC50, listed per entry for reference.
The figure you give is taken to be in nM; do not add the unit.

Some solved cases for reference:
# molecule, reading
records = [
    ("O=C(Nc1cccc(OC(F)(F)F)c1)[C@@H]1CCCN1S(=O)(=O)c1ccc(Br)s1 [Example 2]", 104),
    ("CSc1cccc(NC(=O)[C@@H]2CCCN2S(=O)(=O)c2ccc(C)c(Cl)c2)c1 [Example 12]", 3),
]

Item under review: CSc1cccc(NC(=O)[C@@H]2CCCN2S(=O)(=O)c2cccc(Cl)c2)c1 [Example 7] . Reported IC50?
2

I would be grateful if you could share the reported IC50 for COc1ccc(S(=O)(=O)N2CCC[C@H]2C(=O)Nc2cc(C)cc(C)c2)cc1 [Example 26] .
5

Which IC50 is reported for this molecule? COc1ccc(S(=O)(=O)N2CCC[C@H]2C(=O)Nc2cc(OC)cc(OC)c2)cc1 [Example 27]
16

Requested read-out: IC50. Entry: COc1ccc(S(=O)(=O)N2CCC[C@H]2C(=O)Nc2cccc(SC)c2)cc1 [Example 6]
3

Could you share which IC50 value was measured for COc1ccc(S(=O)(=O)N2CCC[C@H]2C(=O)Nc2ccc(F)c(C)c2)cc1 [Example 37] ?
28

Suppose we examine the molecule CSc1cccc(NC(=O)[C@@H]2CCCN2S(=O)(=O)c2ccc(Br)cc2)c1 [Example 13] ; what IC50 value has been reported?
10

----------
study_target: human orexin-2 receptor (Homo sapiens (Human), UniProt O43614)
run_description: Intracellular calcium measurements (FLIPR), antagonism of orexin-A response
Type: cell-based
run_parameters: CHO cells, 3 nM orexin-A, compound incubation 10 min; read-out: IC50 Ox2
assay_metric: pIC50
# pIC50 is unitless: minus log10 of the molar concentration; print number only

Given the entry COc1ccc(S(=O)(=O)N2CCC[C@H]2C(=O)Nc2ccc3c(c2)CCC3)cc1 , what pIC50 was observed with human orexin-2 receptor (Homo sapiens (Human), UniProt O43614)?
7.92

----------
study_target: human orexin-1 receptor (Homo sapiens (Human), UniProt O43613)
Sequence (O43613 whole entry): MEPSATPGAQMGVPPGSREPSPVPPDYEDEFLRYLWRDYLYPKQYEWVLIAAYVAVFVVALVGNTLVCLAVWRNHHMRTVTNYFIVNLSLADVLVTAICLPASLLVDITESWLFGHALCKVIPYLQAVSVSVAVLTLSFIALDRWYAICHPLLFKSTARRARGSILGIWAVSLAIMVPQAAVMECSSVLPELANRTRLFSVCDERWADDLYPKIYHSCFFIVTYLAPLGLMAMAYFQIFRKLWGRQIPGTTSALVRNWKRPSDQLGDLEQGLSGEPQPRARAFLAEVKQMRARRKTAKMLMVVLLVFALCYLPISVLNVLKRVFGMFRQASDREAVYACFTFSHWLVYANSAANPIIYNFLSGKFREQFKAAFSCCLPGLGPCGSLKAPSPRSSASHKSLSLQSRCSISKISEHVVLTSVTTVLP
run_description: Intracellular calcium measurements (FLIPR), antagonism of orexin-A response
Assay type: cell-based
run_parameters: CHO cells, 3 nM orexin-A, compound incubation time of 120 min; read-out: IC50 Ox1
Overview of reported IC50 across a group of molecules:
Your answer should be a plain number; it is taken to be in nM.

Recorded IC50 for Cc1cc(C)cc(NC(=O)[C@@H]2CCCN2S(=O)(=O)c2ccc(Cl)c(Cl)c2)c1 , please?
218

----------
study_target: human orexin-1 receptor (Homo sapiens (Human))
run_description: Intracellular calcium measurements (FLIPR), antagonism of orexin-A response
Assay type: cell-based
run_parameters: CHO cells, 3 nM orexin-A, compound incubation 10 min; read-out: IC50 Ox1
assay_metric: IC50 (nM)
Just the number in nM, nothing appended.

These solved cases illustrate the format of a correct answer.
# smiles_input, study_target, units, IC50
measured = [
    ("CCCc1ccc(S(=O)(=O)N2CCC[C@H]2C(=O)Nc2cccc(SC)c2)cc1", "human orexin-1 receptor (Homo sapiens (Human))", "nM", 91),
    ("COc1ccc(S(=O)(=O)N2CCC[C@H]2C(=O)Nc2cccc(Cl)c2)cc1", "human orexin-1 receptor (Homo sapiens (Human))", "nM", 83),
    ("COc1ccc(S(=O)(=O)N2CCC[C@H]2C(=O)Nc2cccc(Br)c2)cc1", "human orexin-1 receptor (Homo sapiens (Human))", "nM", 79),
]

Could you now look at the following compound, please?
Look at this compound and give its reported IC50. CSc1cccc(NC(=O)[C@@H]2CCCN2S(=O)(=O)c2ccc3c(c2)OCCN3C)c1
128

----------
pIC50 values for the molecules below.
study_target: human orexin-2 receptor (Homo sapiens (Human))
run_description: Intracellular calcium measurements (FLIPR), antagonism of orexin-A response
Format: cell-based
run_parameters: CHO cells, 3 nM orexin-A, compound incubation time of 120 min; read-out: IC50 Ox2
Remember, pIC50 is on a log scale: it is -log10 of the molar concentration.

Below, each entry is followed by its recorded pIC50 result.
# molecule, pIC50
rows = [
    ("Cc1cc(C)cc(NC(=O)[C@@H]2CCCN2S(=O)(=O)c2cc(C)c(Cl)cc2C)c1", 6.77),
    ("Cc1cc(C)cc(NC(=O)[C@@H]2CCCN2S(=O)(=O)c2ccc(Br)cc2)c1", 7.31),
    ("COc1ccc(C)cc1S(=O)(=O)N1CCC[C@H]1C(=O)Nc1cc(C)cc(C)c1", 8.40),
    ("Cc1cc(C)cc(NC(=O)[C@@H]2CCCN2S(=O)(=O)c2ccc(Br)cc2C)c1", 7.66),
    ("Cc1cc(C)cc(NC(=O)[C@@H]2CCCN2S(=O)(=O)c2ccc3ccccc3c2)c1", 7.60),
]

# get_value(readout= pIC50, system= human orexin-2 receptor (Homo sapiens (Human))) for Cc1cc(C)cc(NC(=O)[C@@H]2CCCN2S(=O)(=O)c2ccc(Br)cc2Cl)c1
6.97

Give the reported pIC50 for Cc1cc(C)cc(NC(=O)[C@@H]2CCCN2S(=O)(=O)c2ccc(Cl)cc2)c1 (system: human orexin-2 receptor (Homo sapiens (Human))).
7.49

# query: pIC50 | item C=Cc1ccc(S(=O)(=O)N2CCC[C@H]2C(=O)Nc2cc(C)cc(C)c2)cc1 | system: human orexin-2 receptor (Homo sapiens (Human))
7.04

----------
log10 IC50 for assorted molecules
study_target: human orexin-2 receptor (Homo sapiens (Human))
run_description: Intracellular calcium measurements (FLIPR), antagonism of orexin-A response
Format: cell-based
run_parameters: CHO cells, 3 nM orexin-A, compound incubation 10 min; read-out: IC50 Ox2
In plain terms, each number is the log10 of measured IC50 in nM.

The examples below pair each entry with its known result.
# smiles_input, study_target, log10 IC50
measured = [
    ("COc1ccc(S(=O)(=O)N2CCC[C@H]2C(=O)Nc2cc(Cl)cc(Cl)c2)cc1", "human orexin-2 receptor (Homo sapiens (Human))", 1.30),
    ("CSc1cccc(NC(=O)[C@@H]2CCCN2S(=O)(=O)c2ccc(Cl)c(Cl)c2)c1", "human orexin-2 receptor (Homo sapiens (Human))", 0.30),
    ("COc1ccc(S(=O)(=O)N2CCC[C@H]2C(=O)Nc2cccc(C#N)c2)cc1", "human orexin-2 receptor (Homo sapiens (Human))", 1.99),
    ("COc1ccc(S(=O)(=O)N2CCC[C@H]2C(=O)Nc2cccc(Br)c2)cc1", "human orexin-2 receptor (Homo sapiens (Human))", 1.57),
    ("COc1ccc(S(=O)(=O)N2CCC[C@H]2C(=O)Nc2cc(C)ccc2Cl)cc1", "human orexin-2 receptor (Homo sapiens (Human))", 2.35),
    ("COc1ccc(S(=O)(=O)N2CCC[C@H]2C(=O)Nc2cccc(N(C)C)c2)cc1", "human orexin-2 receptor (Homo sapiens (Human))", 1.28),
    ("COc1ccc(S(=O)(=O)N2CCC[C@H]2C(=O)Nc2ccc(F)c(F)c2)cc1", "human orexin-2 receptor (Homo sapiens (Human))", 2.13),
]

Please find the next molecule below.
Entry CSc1cccc(NC(=O)[C@@H]2CCCN2S(=O)(=O)c2cccc(Br)c2)c1 : reported log10 IC50 = ?
0.30

----------
study_target: human orexin-1 receptor (Homo sapiens (Human), UniProt O43613)
run_description: Intracellular calcium measurements (FLIPR), antagonism of orexin-A response
Type: cell-based
run_parameters: CHO cells, 3 nM orexin-A, compound incubation 10 min; read-out: IC50 Ox1
assay_metric: IC50 (nM)
Could you give me the number in nM? Just the number is fine.

Item under review: COc1ccc(S(=O)(=O)N2CCC[C@H]2C(=O)Nc2cccc(SC)c2)cc1OC . Reported IC50?
57

Return reported IC50; argument: COc1ccc(S(=O)(=O)N2CCC[C@H]2C(=O)Nc2cccc3ccccc23)cc1
269

Find the recorded IC50 belonging to COc1ccc(S(=O)(=O)N2CCC[C@H]2C(=O)Nc2cccc(OC)c2)cc1 and report it.
182

Given the molecule CSc1cccc(NC(=O)[C@@H]2CCCN2S(=O)(=O)c2ccc(Cl)c(Cl)c2)c1 , what is its reported IC50?
7

Form field: reported IC50 of COc1ccc(S(=O)(=O)N2CCC[C@H]2C(=O)Nc2cccc(SC)c2)cc1
21
